- protocolDetails: total protein half-life in vivo (active degradation + dilution); higher = more stable protein
- studyConditions: wild type E. coli NCM3722; growth: P-lim chemostat; doubling time 6 h
Each entry below lists one item and its recorded total protein half-life in vivo value.
# number only, unit h dropped from output

The cases that follow already have their total protein half-life in vivo on record.
{"sequenceText": "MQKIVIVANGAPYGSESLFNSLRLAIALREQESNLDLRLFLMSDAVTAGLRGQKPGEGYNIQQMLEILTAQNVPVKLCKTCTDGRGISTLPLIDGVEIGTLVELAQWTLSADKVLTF [P0AB52]", "total protein half-life in vivo, h": 5.43}
{"sequenceText": "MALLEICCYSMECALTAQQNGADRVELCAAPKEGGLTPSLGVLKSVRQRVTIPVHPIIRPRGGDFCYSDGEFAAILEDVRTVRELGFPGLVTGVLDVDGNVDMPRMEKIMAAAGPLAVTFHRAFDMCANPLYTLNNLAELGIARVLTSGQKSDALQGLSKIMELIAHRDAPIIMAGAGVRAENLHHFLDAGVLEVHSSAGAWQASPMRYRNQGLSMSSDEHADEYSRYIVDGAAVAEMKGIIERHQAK", "total protein half-life in vivo, h": 5.85}

Let's switch to this sequence now.
get_value(item= `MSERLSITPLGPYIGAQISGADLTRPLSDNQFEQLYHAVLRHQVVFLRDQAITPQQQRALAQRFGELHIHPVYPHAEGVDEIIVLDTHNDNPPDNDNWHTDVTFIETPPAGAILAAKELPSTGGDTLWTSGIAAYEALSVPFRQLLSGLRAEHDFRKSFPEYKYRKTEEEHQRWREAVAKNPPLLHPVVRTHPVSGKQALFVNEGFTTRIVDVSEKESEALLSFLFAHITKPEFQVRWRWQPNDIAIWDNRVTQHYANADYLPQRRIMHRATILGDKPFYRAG` , readout=total protein half-life in vivo) returns 4.3
